Counter-ions that a name gives are not always drawn.
Would you mind telling me the reported melting point of each entry?

Q: I have this molecule here, COC(=O)C1=C(C)NC(C)=C(C(=O)OCCCN2CCCCC2)C1c1ccc([N+](=O)[O-])cc1 (centres unmarked) (as salt: hydrochloride) (hydrate or solvate) [Example 50] , and I need its recorded melting point.
A: 128 to 129 °C

Q: What do you have for CC1=C(C(N)=O)C(c2cccc([N+](=O)[O-])c2)C(C(=O)NCCCN2CCC(c3ccccc3)(c3ccccc3)CC2)=C(C)N1 (centres unmarked) [Example 61] ?
A: 144 to 148 °C

Q: What do you have for CCOC(=O)C1(c2ccccc2)CCN(CCCNC(=O)C2=C(C)NC(C)=C(C(C)=O)C2c2ccc([N+](=O)[O-])cc2)CC1 (racemic) [Example 202] ?
A: 89 to 90 °C

Q: What do you have for CCC1=C(C(N)=O)C(c2ccc([N+](=O)[O-])cc2)C(C(=O)NCCCN2CCC(c3ccccc3)(c3ccccc3)CC2)=C(CC)N1 (centres unmarked) [Example 42] ?
A: 119 to 123 °C

Q: What do you have for CCNC(=O)C1=C(CC)NC(COCCN=[N+]=[N-])=C(C(=O)NCCCN2CCC(C(=O)OC)(c3ccccc3)CC2)C1c1ccc([N+](=O)[O-])cc1 (centres unmarked) [Example 230] ?
A: 70 °C (dec.)

Q: What do you have for CCC1=C(C(=O)OCCC#N)C(c2ccc([N+](=O)[O-])cc2)C(C(=O)NCCCN2CCC(c3ccccc3)(c3ccccc3)CC2)=C(COCCN=[N+]=[N-])N1 (centres unmarked) [Example 141] ?
A: 63 to 67 °C

Q: What do you have for CCC1=C(C(N)=O)C(c2ccc([N+](=O)[O-])cc2)C(C(=O)NCCCN2CCC(c3ccccc3)(c3ccccc3)CC2)=C(CCCCN)N1 (centres unmarked) [Example 171] ?
A: 85 to 89 °C

Q: What do you have for CCC1=C(C(=O)NC)C(c2ccc([N+](=O)[O-])cc2)C(C(=O)NCCCN2CCC(c3ccccc3)(c3ccccc3)CC2)=C(CCCCOC)N1 (centres unmarked) [Example 173] ?
A: 98 to 102 °C

Q: What do you have for CCOC(=O)C1(c2ccccc2)CCN(CCCNC(=O)C2=C(COCCN)NC(C)=C(C(C)=O)C2c2ccc3c(c2)OCO3)CC1 (centres unmarked) [Example 244] ?
A: 55 °C (dec.)

Q: What do you have for COC(=O)C1=C(C)NC(C)=C(C(=O)NCCCN2CCC(c3ccccc3)CC2)C1c1ccc([N+](=O)[O-])cc1 (racemic) (as salt: hydrochloride) (hydrate or solvate) [(±)-45, hydrochloride hemihydrate] ?
A: 160 °C

Q: What do you have for COC(=O)C1(c2ccccc2)CCN(CCCNC(=O)C2=C(CCCCN)NC(C)=C(C(N)=O)C2c2ccc([N+](=O)[O-])cc2)CC1 (centres unmarked) [Example 177] ?
A: 81 to 84 °C
